tested on: downy brome; experiment: Test C preemergence/postemergence greenhouse plant response rating 0 to 100; type: in vivo, Bromus tectorum; conditions: POSTEMERGENCE; Rate 4 g/ha
Below, each entry is listed alongside its reported Plant response rating (0 to 100), Downy Brome.
test.readout: Plant response rating (0 to 100), Downy Brome

# compound, numeric.value
records = [
    ("CCC(C)Oc1cc(-c2nn3c(c2Cl)CCCC3)c(F)cc1Cl (centres unmarked)", 0),
    ("CC(C)COc1cc(-c2nn3c(c2Cl)CCCC3)c(F)cc1Cl", 20),
    ("COCN1C(=O)COc2cc(F)c(-c3nn4c(c3Br)CCCC4)cc21", 50),
    ("C#CC(C)N1C(=O)COc2cc(F)c(-c3nn4c(c3Cl)CCCC4)cc21 (centres unmarked)", 30),
    ("COCN1C(=O)COc2cc(F)c(-c3nn4c(c3Cl)CCCC4)cc21", 40),
]

----------
test system: wheat; test: Test B preemergence/postemergence greenhouse plant response rating 0 to 10; type: in vivo, Triticum aestivum; settings: Rate 200 g/ha, PREEMERGENCE; 0 to 10 scale
test.readout: Plant response rating, Wheat

# smiles.entry, numeric.value
measured = [
    ("C#CCOc1cc(-c2nn3c(c2Br)CCCC3)c(F)cc1Cl", 2),
    ("C=CCN1C(=O)COc2cc(F)c(-c3nn4c(c3Br)CCCC4)cc21", 3),
    ("Fc1cc(Cl)c(-c2ccccc2)cc1-c1nn2c(c1Cl)CCCC2", 0),
    ("CC(C)OC(=O)COc1cc(-c2nn3c(c2Cl)CCCC3)c(F)cc1Cl", 0),
    ("CC(C)Oc1cc(-c2nn3c(c2Br)CCCC3)c(F)cc1Cl", 2),
    ("C=C(Cl)COc1cc(-c2nn3c(c2Cl)CCCC3)c(F)cc1Cl", 2),
    ("CC(C)Oc1cc(-c2nn3c(c2Cl)CCCC3)c(F)cc1Cl", 2),
    ("Fc1cc(Cl)ccc1-c1nn2c(c1Br)CCCC2", 7),
]

----------
System: wheat
Test: Test C preemergence/postemergence greenhouse plant response rating 0 to 100
Format: in vivo, Triticum aestivum
Conditions: POSTEMERGENCE, 62 g/ha, 0 to 100 scale
Source text: The compounds evaluated in this test were formulated in a non-phytoxic solvent and applied to the soil surface before plant seedlings emerged (preemergence application), to water that covered the soil surface (flood application), and to plants that were in the one-to-four leaf stage (postemergence application). A sandy loam soil was used for the preemergence and postemergence tests, while a silt loam soil was used in the flood test. […]
Below, each entry is listed alongside its reported Plant response rating, Wheat.

# compound, Plant response rating, Wheat
records = [
    ("Fc1cc(Cl)c(OCCCl)cc1-c1nn2c(c1Cl)CCCC2 [Compound 49]", 50),
    ("COCN1C(=O)COc2cc(F)c(-c3nn4c(c3Br)CCCC4)cc21 [Compound 67]", 60),
    ("CC(C)OC(=O)COc1cc(-c2nn3c(c2Cl)CCCC3)c(F)cc1Cl [Compound 39]", 10),
    ("CC(C)N1C(=O)COc2cc(F)c(-c3nn4c(c3Cl)CCCC4)cc21 [Compound 31]", 40),
    ("COC(=O)c1cc(-c2nn3c(c2Cl)CCCC3)c(F)cc1Cl [Compound 43]", 50),
    ("C#CCN1C(=O)COc2cc(F)c(-c3nn4c(c3Cl)CCCC4)cc21 [Compound 34]", 50),
]
